Molecular target: T1, USP20 DUSP2 domain N805A (for FP) (human)
T1 chain: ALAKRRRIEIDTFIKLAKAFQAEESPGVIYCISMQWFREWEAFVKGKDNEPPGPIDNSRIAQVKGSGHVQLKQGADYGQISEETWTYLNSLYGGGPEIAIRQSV
Assay: FP
pKd: −log10 of the molar value. * marks the point of attachment. FITC = O=C1OC2(c3ccc(O)cc3Oc3cc(O)ccc32)c2ccc(NC(=S)*)cc21
reportedMetric: pKd

Query pKd for {FITC}-SDDDLAWNIAPQGLQ-NH2 [FITC-GPR137B 348-362]
< 3.89

From: paper PMC13376213
